molecular target: Galactokinase (Homo sapiens) (UniProt P51570); test: qHTS Validation Assay for Inhibitors of Human Galactokinase (GALK) (AID 493189); details: purified human GALK enzyme activity, qHTS 7-point titration; series mostly up to 57.5 µM; also: 0% is about no effect
Sequence (P51570 whole entry, looked up): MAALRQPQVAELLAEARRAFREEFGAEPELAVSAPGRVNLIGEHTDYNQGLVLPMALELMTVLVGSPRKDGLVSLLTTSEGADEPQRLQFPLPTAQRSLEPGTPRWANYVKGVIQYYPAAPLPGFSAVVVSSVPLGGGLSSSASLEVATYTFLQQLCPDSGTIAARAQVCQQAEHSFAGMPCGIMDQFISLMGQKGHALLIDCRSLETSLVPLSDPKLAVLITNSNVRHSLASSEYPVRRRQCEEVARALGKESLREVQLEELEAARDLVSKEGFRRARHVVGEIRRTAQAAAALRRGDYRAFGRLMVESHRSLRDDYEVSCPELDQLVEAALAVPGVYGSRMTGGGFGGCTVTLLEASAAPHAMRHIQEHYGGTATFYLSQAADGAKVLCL
The source made the active and inactive calls. Calls follow the shape of the dose curve; as a rule, active = well fitted curve in the direction sought with a large enough effect; inconclusive = small, poorly fitted or top-dose-only effect, or another doubt; inactive = no such curve, though single readings can be large or run the other way.
Measured Property: outcome

molecule="CC(C)C[C@H]1C(=O)N2CCCC2[C@]2(O)O[C@](NC(=O)[C@@H]3C=C4c5cccc6[nH]c(Br)c(c56)C[C@H]4N(C)C3)(C(C)C)C(=O)N12 (stereo partly drawn)" study_system="Galactokinase (Homo sapiens) (UniProt P51570)" meas_value=inactive
molecule="CN1C[C@H](C(=O)N[C@]2(C)O[C@@]3(O)C4CCCN4C(=O)[C@H](Cc4ccccc4)N3C2=O)C[C@@H]2c3cccc4[nH]cc(c34)C[C@H]21 (stereo partly drawn)" study_system="Galactokinase (Homo sapiens) (UniProt P51570)" meas_value=inactive
molecule="Cc1ccccc1N1CCN(S(=O)(=O)C[C@]23CCC(CC2NC(=O)[C@@H](N)CCS(C)(=O)=O)C3(C)C)CC1 (stereo partly drawn)" study_system="Galactokinase (Homo sapiens) (UniProt P51570)" meas_value=inactive

====

assay: qHTS to identify inhibitors of the type 1 interferon - major histocompatibility complex class I in skeletal muscle: primary screen against the NCATS Mechanism Interrogation Plate v5.0 (MIPE) Libary (AID 1347411); conditions: iHSKM cells + IFN-b, HiBiT-tagged MHC-I luminescence, 24 h; series mostly up to 45.8 µM; also: nearly all actives have a fitted effect of over 65% in size
Results filed as inconclusive are left out. Activity calls are given as the source filed them. Calls follow the shape of the dose curve; as a rule, active = well fitted inhibition curve with a large enough effect; inconclusive = small, poorly fitted or top-dose-only effect; inactive = no such curve, though single readings can be large or run the other way.
Could you please pick one outcome from this set? yes (active), no (inactive)

molecule=O=C(O)c1ccccc1-c1ccc(/C=c2\sc3nc4cc(Br)cnc4n3c2=O)o1 group_label=no
molecule=COc1cc2c(Oc3ccc4[nH]c(C)cc4c3F)ccnc2cc1OCC1(N)CC1 group_label=no
molecule=CC1=NN(c2ccc(C(=O)O)cc2)C(=O)/C1=C/c1ccc(-c2cc(C)c(C)cc2[N+](=O)[O-])o1 group_label=no

Any idea what this test logged for CN(C)CCN1C(=O)c2cccc3cc(NC(N)=O)cc(c23)C1=O ?
yes

Dear colleague, could you share the recorded outcome for CCS(=O)(=O)N1CCC(C(C)n2c(C)c(C(=O)NCc3c(OC)cc(C)[nH]c3=O)c3ccccc32)CC1 (stereo not given) when you have a moment?
no

Test call, this molecule: Fc1ccc(-c2csc3ncnc(NCc4ccc5c(c4)OCO5)c23)cc1
no

Please share the test call associated with O=C1OC2(CCC(C(=O)Nc3ccn(-c4ccccc4F)n3)CC2)c2cnccc21 (stereo not given) .
no

For NCC(=O)Nc1cncc(-c2nn3c(=O)cc(N4CCNCC4)nc3s2)c1 , which call appears in the assay record?
no

Any idea what this test logged for CCC[C@H](NC(=O)/C(C#N)=C/c1cccc(Br)n1)c1ccccc1 ?
yes

Call for entry COc1cc(OCc2cccc(-c3ccccc3)c2C)cc(OC)c1CN1CCCC[C@H]1C(=O)O :
no

What outcome does the record of this test show for CN(C)c1cc(NC(=O)CNC(C)(C)C)c(O)c2c1C[C@H]1C[C@H]3[C@H](N(C)C)C(=O)C(C(N)=O)=C(O)[C@]3(O)C(=O)C1=C2O ?
no

Give the logged outcome of this assay for the following molecule: Cn1c(-c2ccccc2C(F)(F)F)nnc1C12CCC(c3noc(C4CC(F)(F)C4)n3)(CC1)CC2
no

Tell me the recorded outcome of this test for O=C1Cc2cc(C(=O)NC3C[C@H]4CC[C@@H](C3)N4S(=O)(=O)CC3CCN(CCCC(F)(F)F)CC3)c(Cl)cc2N1 (stereo not given in full) .
no

Which result was noted for this molecule in the test: COC[C@@H](c1ccc(C(F)(F)F)cc1)N1CCN(C2(C)CCN(C(=O)c3c(C)ncnc3C)CC2)C[C@@H]1C
no

Record lookup: outcome of this test for CC(C)n1c(=O)cc(N[C@@H](C)c2ccccc2)[nH]c1=O ?
no

====

Can you tell me activity, negative = inhibition for the items I'm about to list?
assay: qHTS profiling for inhibitors of Plasmodium falciparum proliferation (AID 504749);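 also: 0% = DMSO vehicle and full inhibition = artemisinin control; nearly all actives have a fitted effect of over 60% in size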; settings: P. falciparum in erythrocytes, SYBR Green DNA, 72 h; at 28.7 µM (top of the series); parasite line A
Records with an inconclusive call do not appear.
Give bare numbers, in %.

Example compounds with recorded activity, negative = inhibition:
compound=COc1ccc(CCNC[C@@H](O)c2ccc(O)cc2)cc1OC measured_property="activity, negative = inhibition" meas_value=10.4
compound=N[C@H](Cc1ccc(O)c(O)c1)C(=O)O measured_property="activity, negative = inhibition" meas_value=9.99
compound="CN1C(=O)CCC1c1cccnc1 (centres undefined)" measured_property="activity, negative = inhibition" meas_value=0.771

Okay, next one:
Data point: C[C@@H]1[C@H](O)[C@@H](C)/C=C/C=C/C=C/C=C/C=C/C=C/C=C/[C@H](O[C@@H]2O[C@H](C)[C@@H](O)[C@H](N)[C@@H]2O)C[C@@H]2O[C@](O)(C[C@@H](O)C[C@@H](O)[C@H](O)CC[C@@H](O)C[C@@H](O)CC(=O)O[C@H]1C)C[C@H](O)[C@H]2C(=O)O ; activity, negative = inhibition = -1.42

====

test system: PAD; assay: qHTS profiling for inhibitors of Plasmodium falciparum proliferation (AID 504749);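 also: 0% = DMSO vehicle and full inhibition = artemisinin control; nearly all actives have a fitted effect of over 60% in size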; settings: P. falciparum in erythrocytes, SYBR Green DNA, 72 h; series mostly up to 28.7 µM
Results filed as inconclusive are left out. Active and inactive are the calls of the source. Calls come from the whole dose curve; as a rule, active = well fitted inhibition curve with a large enough effect; inconclusive = small, poorly fitted or top-dose-only effect; inactive = flat fitted curve, though single readings scatter.
Reply using exactly one outcome from yes (1) = active, no (0) = inactive

Tell me the recorded outcome of this test for COc1cc2c(cc1OC)C(c1ccccc1)CN(C)CC2 (stereo unspecified) .
no (0)

====

experiment: qHTS for inhibitors of ER calcium dysfunction: SERCaMP assay screened against the NCATS CANVASS Library (AID 1347393); details: SH-SY5Y GLuc-SERCaMP (Gaussia luciferase released on ER calcium loss) secretion, thapsigargin, luminescence; series mostly up to 76.6 µM; also: nearly all actives have a fitted effect of over 40% in size; also: potency is read from the fitted curve at half-maximal effect
Inconclusive results are not listed. Calls of active or inactive are those of the source. The call rests on the fitted dose curve; in most records, active means well fitted inhibition curve with a large enough effect; inconclusive means small, poorly fitted or top-dose-only effect; inactive means no such curve, though single readings can be large or run the other way. Square brackets hold non-standard residues; d marks the D form. Peptide text beside a SMILES is read from it. ξ: configuration not given here. ξL = CC(C)CC(N)C(=O)O
Measured Property: Potency

For orientation, consider the following solved cases.
compound=CO/C=C/C(=O)c1cc2cnc3c(N)cc(=NC(=O)C(C)C)c([nH]1)c23 measured_property=Potency meas_value=inactive
compound=C/C(=C\[C@H](C)C(=O)/C=C/CC1CC(=O)NC(=O)C1)[C@@H]1OC(=O)CCCC/C=C/[C@H](O)[C@@H](O)[C@@H]1C measured_property=Potency meas_value="19.3 µM (active)"
compound="CC[C@@H](C)[C@H]1NC(=O)C(CC(C)C)NC(=O)[C@@H](CC(C)C)NC(=O)[C@H](Cc2c[nH]c3ccccc23)NC(=O)CNC(=O)[C@@H](CC(N)=O)NC1=O (stereo partly drawn) (cyclo(GW[dL][ξL][dI][dN]))" measured_property=Potency meas_value=inactive
compound=O[C@H]1C=C2[C@H]3CN(Cc4cc5c(cc43)OCO5)[C@H]2C[C@@H]1O measured_property=Potency meas_value=inactive
compound="C=C1C[C@]23C=CC(=O)[C@@](C)(CCCC(C)C(=O)N[C@@H](CO)C(=O)O)[C@@H]2C[C@@H]1CC3 (some centres undefined)" measured_property=Potency meas_value=inactive

Provide Potency values for the following items, in order.
1. C/C(=C\[C@H](C)C(=O)CCCC1CC(=O)NC(=O)C1)[C@@H]1OC(=O)/C=C/CC/C=C/[C@H](O)[C@@H](O)[C@@H]1C
2. CC[C@H]1[C@@H](C)[C@@H](c2cc(OC)c(OC)cc2OC)[C@H](C)[C@@H](c2cc(OC)c(OC)cc2OC)[C@@]12C=C(OC)C(=O)C=C2OC
3. C/C1=C/[C@@H](C)[C@H](O)[C@@H](O)/C=C/CC/C=C/C(=O)O[C@@H]1[C@H](C)C(=O)/C=C/CC1CC(=O)NC(=O)C1

["inactive", "0.86 µM (active)", "inactive"]

====

Target: 3',5'-cyclic-AMP phosphodiesterase 4B (Homo sapiens) (UniProt Q07343)
Sequence (Q07343 whole entry, looked up): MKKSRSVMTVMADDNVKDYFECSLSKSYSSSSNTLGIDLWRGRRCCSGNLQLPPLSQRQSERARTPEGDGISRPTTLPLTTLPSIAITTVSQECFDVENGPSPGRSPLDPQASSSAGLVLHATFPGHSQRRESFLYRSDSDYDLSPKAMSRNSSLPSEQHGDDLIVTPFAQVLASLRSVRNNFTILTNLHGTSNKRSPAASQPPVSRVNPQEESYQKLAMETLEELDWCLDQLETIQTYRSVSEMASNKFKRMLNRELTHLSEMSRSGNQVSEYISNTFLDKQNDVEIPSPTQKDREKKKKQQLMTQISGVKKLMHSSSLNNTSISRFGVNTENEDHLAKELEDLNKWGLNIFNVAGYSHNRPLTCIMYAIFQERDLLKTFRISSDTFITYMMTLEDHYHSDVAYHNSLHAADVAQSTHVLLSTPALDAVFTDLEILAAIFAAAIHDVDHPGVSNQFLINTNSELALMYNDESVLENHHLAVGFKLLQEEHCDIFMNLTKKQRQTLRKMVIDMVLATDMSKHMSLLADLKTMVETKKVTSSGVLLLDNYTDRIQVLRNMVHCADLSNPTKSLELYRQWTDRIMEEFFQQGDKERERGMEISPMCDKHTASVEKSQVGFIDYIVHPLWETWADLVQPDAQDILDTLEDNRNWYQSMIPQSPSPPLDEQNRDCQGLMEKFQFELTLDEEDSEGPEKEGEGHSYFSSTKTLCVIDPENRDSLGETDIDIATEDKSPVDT
Experiment: qHTS Assay for Inhibitors of PDE-IV (AID 607); also: % of control where 0% means no effect
Conditions: HEK293 ACTOne CNG channel cells, membrane potential fluorescence; series mostly up to 22.9 µM
Description: NIH Chemical Genomics Center [NCGC] NIH Molecular Libraries Screening Centers Network [MLSCN] […] Here we report the development of a cell-based screening assay for cAMP phosphodiesterase (PDE) inhibitors. […] The influx of cations through the CNG channel can be quantified using membrane potential (MP) dyes. […] The activity of the CNG channel was measured by BD ACTOneTM membrane potential dye kit (BD Biosciences). […]
Results filed as inconclusive are left out. Activity calls are given as the source filed them. Calls come from the whole dose curve; as a rule, active = well fitted activation curve with a large enough effect in the main read-out, with a control signal flat (not every such curve was filed as active); inconclusive = small, poorly fitted or top-dose-only effect, or effect the other way, or a change in a side signal; inactive = flat fitted curve, though single readings scatter.
Measured Property: outcome

compound_structure_string=O=c1c(-c2cc(F)cc(F)c2)nc2cnc(N3CCNCC3)nc2n1-c1ccccc1 measured_property=outcome meas_value=inactive
compound_structure_string=COc1ccccc1CN1CC[C@@]2(CCCN(S(C)(=O)=O)C2)C1 measured_property=outcome meas_value=inactive
compound_structure_string=COc1ccc(-n2c(=O)cnc3cnc(N(C)C)nc32)cc1 measured_property=outcome meas_value=inactive
compound_structure_string=COc1ccccc1CN1CC[C@@]2(CCCN(C(=O)c3cccc(F)c3)C2)C1 measured_property=outcome meas_value=inactive
compound_structure_string=O=C(Nc1cccc(F)c1)N1CCC2(CC1)CCN(S(=O)(=O)c1ccccc1)CC2 measured_property=outcome meas_value=inactive
compound_structure_string=COC(=O)N1CCC2(CCN(Cc3nccs3)CC2)CC1 measured_property=outcome meas_value=inactive

Please supply outcome for each of the following items, keeping them in order.
1. COCC(=O)N1CCC[C@@]2(CCN(C(=O)Nc3cccc(C#N)c3)C2)C1
2. CC(=O)NCCc1ccc(O)c(O)c1

1: inactive; 2: inactive

Give outcome for each listed item.
1. CNc1cc(-c2ccccc2C(F)(F)F)ncn1
2. COc1ccc(Oc2ncc3nc(-c4cccs4)c(=O)n(CCC#N)c3n2)cc1
3. CCSC(N)=Nc1ccc(C(F)(F)F)cc1
4. O=C(c1cc(C(F)(F)F)cc(C(F)(F)F)c1)N1CCC2(CC1)CCN(c1ccccn1)CC2
5. COCCn1c(=O)c(CCc2ccccc2)nc2cnc(N3CCNCC3)nc21
6. COCCn1c(=O)c(-c2cccs2)nc2cnc(N(C)C)nc21
7. O=c1c(-c2ccc(Cl)cc2)nc2cnc(N3CCOCC3)nc2n1C[C@H]1CCCO1

["inactive", "inactive", "inactive", "inactive", "inactive", "inactive", "inactive"]

Would you mind listing outcome for each of the following molecules?
1. Cc1noc(C)c1-c1cc(NCc2cccnc2)ncn1
2. COCC(=O)N1CCC2(CC1)CCN(C(c1ccccc1)c1ccccc1)CC2
3. c1cncc(-c2cncnc2-n2ccnc2)c1
4. CN1CCCC2(CCN(C(=O)c3cnccn3)CC2)C1
5. Cc1noc(C)c1-c1nccc(NCc2cccnc2)n1
6. CN1CCN(c2ncc3nc(-c4ccc(F)cc4)c(=O)n(Cc4cccs4)c3n2)CC1

1. inactive
2. inactive
3. inactive
4. inactive
5. inactive
6. inactive
